experiment: DRUGMATRIX: Purinergic P2X radioligand binding (ligand: [3H] alpha, beta-Methylene-ATP); format: cell membranes, Oryctolagus cuniculus, New Zealand albino, Urinary bladder, Membrane; settings: Not Active = under 50% inhibition at 10 µM
READOUT: Ki

{"COMPOUND": "C[C@@H]1O[C@@H](O[C@H]2C[C@@H](O)[C@]3(CO)[C@H]4[C@H](O)C[C@]5(C)[C@@H](C6=CC(=O)OC6)CC[C@]5(O)[C@@H]4CC[C@]3(O)C2)[C@H](O)[C@H](O)[C@H]1O", "RECORDED_RESULT": "Not Active"}
{"COMPOUND": "CNC1=Nc2ccc(Cl)cc2C(c2ccccc2)=[N+]([O-])C1 [CHLORDIAZEPOXIDE]", "RECORDED_RESULT": "Not Active"}
{"COMPOUND": "C[C@H]1[C@H](NC(=O)/C(=N\\OC(C)(C)C(=O)O)c2csc(N)n2)C(=O)N1S(=O)(=O)O", "RECORDED_RESULT": "Not Active"}

----------
experiment: DRUGMATRIX: Phosphodiesterase PDE3 enzyme inhibition (substrate: [3H]cAMP + cAMP); assay type: tissue-based, Homo sapiens; conditions: platelet; Not Active = under 50% inhibition at 10 µM
READOUT: Ki

Use the examples below as a reference point.
{"COMPOUND": "CN1CCN(CCCN2c3ccccc3Sc3ccc(C(F)(F)F)cc32)CC1", "READOUT": "Ki", "RECORDED_RESULT": "Not Active"}
{"COMPOUND": "COc1ccc2c(c1OC)C(=O)O[C@@H]2[C@H]1c2c(cc3c(c2OC)OCO3)CCN1C", "READOUT": "Ki", "RECORDED_RESULT": "Not Active"}
{"COMPOUND": "CCc1ccc(CCOc2ccc(CC3SC(=O)NC3=O)cc2)nc1 (stereo not drawn)", "READOUT": "Ki", "RECORDED_RESULT": "Not Active"}
{"COMPOUND": "COc1ccccc1N", "READOUT": "Ki", "RECORDED_RESULT": "Not Active"}
{"COMPOUND": "C[C@H]1[C@H](NC(=O)/C(=N\\OC(C)(C)C(=O)O)c2csc(N)n2)C(=O)N1S(=O)(=O)O", "READOUT": "Ki", "RECORDED_RESULT": "Not Active"}

Would you kindly share the measured Ki for CC(C)(C)NCC(O)COc1cccc2c1CC(O)C(O)C2 (stereo not drawn) ?
Not Active

And then `CCCCC(=O)N(Cc1ccc(-c2ccccc2-c2nnn[nH]2)cc1)[C@H](C(=O)O)C(C)C` , what is it?
Not Active

And then `COc1cccc2c1C(=O)c1c(O)c3c(c(O)c1C2=O)C[C@@](O)(C(C)=O)C[C@@H]3O[C@H]1C[C@H](N)[C@H](O)[C@H](C)O1` , what is it?
Not Active

----------
test: DRUGMATRIX: Sodium/nucleoside co-transporter radioligand binding (ligand: nitrobenzylthioinosine); type: cell membranes, Cavia porcellus, Dunkin-Hartley, Cerebral cortex, Membrane; conditions: Not Active = under 50% inhibition at 10 µM
READOUT: Ki

Use the examples below as a reference point.
{"COMPOUND": "CN1CCN(C(c2ccccc2)c2ccccc2)CC1 [CYCLIZINE]", "Ki": "Not Active"}
{"COMPOUND": "O=C(O)CCCc1cccs1", "Ki": "Not Active"}
{"COMPOUND": "CO/N=C(\\C(=O)N[C@@H]1C(=O)N2C(C(=O)O)=C(COC(C)=O)CS[C@H]12)c1csc(N)n1 [CEFOTAXIME]", "Ki": "Not Active"}
{"COMPOUND": "CC(O)(P(=O)(O)O)P(=O)(O)O [ETIDRONIC ACID]", "Ki": "Not Active"}
{"COMPOUND": "CCc1ccc(CCOc2ccc(CC3SC(=O)NC3=O)cc2)nc1 (stereo unspecified) [PIOGLITAZONE]", "Ki": "Not Active"}

Would you kindly share the measured Ki for CS(=O)(=O)Nc1ccc([N+](=O)[O-])cc1Oc1ccccc1 [NIMESULIDE] ?
Not Active

And then CCN(CC)CCNC(=O)c1ccc(N)cc1 [PROCAINAMIDE] , what is it?
Not Active

And then C[C@]12CC[C@@H]3c4ccc(O)cc4CC[C@H]3[C@@H]1C[C@@H](O)[C@@H]2O [ESTRIOL] , what is it?
Not Active

And then CC(C)c1c(C(=O)Nc2ccccc2)c(-c2ccccc2)c(-c2ccc(F)cc2)n1CC[C@@H](O)C[C@@H](O)CC(=O)O [ATORVASTATIN] , what is it?
Not Active

And then CCC1=C(C)CN(C(=O)NCCc2ccc(S(=O)(=O)NC(=O)N[C@H]3CC[C@H](C)CC3)cc2)C1=O [GLIMEPIRIDE] , what is it?
Not Active

----------
assay: DRUGMATRIX: Phosphodiesterase PDE3 enzyme inhibition (substrate: [3H]cAMP + cAMP); assay type: tissue-based, Homo sapiens; conditions: platelet; Not Active = under 50% inhibition at 10 µM

{"COMPOUND": "CC(C)(C(=O)O)c1ccc(C(O)CCCN2CCC(C(O)(c3ccccc3)c3ccccc3)CC2)cc1 (centres undefined) [FEXOFENADINE]", "Ki": "Not Active"}
{"COMPOUND": "CN1CCC(=C2c3ccccc3CC(=O)c3sccc32)CC1 [KETOTIFEN]", "Ki": "Not Active"}
{"COMPOUND": "COC(=O)[C@H]1[C@H]2C[C@@H]3c4[nH]c5cc(OC)ccc5c4CCN3C[C@H]2C[C@@H](OC(=O)c2cc(OC)c(OC)c(OC)c2)[C@@H]1OC [RESERPINE]", "Ki": "Not Active"}
{"COMPOUND": "C[C@]12CC[C@@H]3c4ccc(O)cc4CC[C@H]3[C@@H]1C[C@@H](O)[C@@H]2O [ESTRIOL]", "Ki": "Not Active"}

----------
target: UniProt Q690N0; test: DRUGMATRIX: Progesterone radioligand binding (ligand: [3H] R-5020); format: tissue-based, Uterus; details: Not Active = under 50% inhibition at 10 µM
Sequence (Q690N0 whole entry): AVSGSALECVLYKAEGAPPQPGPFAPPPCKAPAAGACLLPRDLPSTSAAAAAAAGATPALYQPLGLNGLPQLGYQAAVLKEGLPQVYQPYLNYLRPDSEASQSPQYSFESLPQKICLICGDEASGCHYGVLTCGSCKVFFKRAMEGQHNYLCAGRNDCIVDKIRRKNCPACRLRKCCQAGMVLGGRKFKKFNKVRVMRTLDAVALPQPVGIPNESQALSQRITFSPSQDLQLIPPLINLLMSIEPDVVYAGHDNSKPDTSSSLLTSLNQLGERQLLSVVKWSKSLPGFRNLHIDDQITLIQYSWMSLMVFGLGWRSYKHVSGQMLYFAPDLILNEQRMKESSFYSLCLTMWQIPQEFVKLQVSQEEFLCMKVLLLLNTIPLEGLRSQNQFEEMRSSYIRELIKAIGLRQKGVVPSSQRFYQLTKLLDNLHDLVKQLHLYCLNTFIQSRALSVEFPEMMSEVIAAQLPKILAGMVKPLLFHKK
READOUT: IC50

Use the examples below as a reference point.
{"COMPOUND": "C[C@@H]1O[C@@H](O[C@H]2C[C@@H](O)[C@]3(CO)[C@H]4[C@H](O)C[C@]5(C)[C@@H](C6=CC(=O)OC6)CC[C@]5(O)[C@@H]4CC[C@]3(O)C2)[C@H](O)[C@H](O)[C@H]1O", "RECORDED_RESULT": "Not Active"}
{"COMPOUND": "CS(=O)(=O)Nc1ccc([N+](=O)[O-])cc1Oc1ccccc1 [NIMESULIDE]", "RECORDED_RESULT": "Not Active"}
{"COMPOUND": "CCCCCCCCNC(C)C(O)c1ccc(SC(C)C)cc1 (configuration not stated)", "RECORDED_RESULT": "Not Active"}
{"COMPOUND": "CCN(C(C)=O)c1cccc(-c2ccnc3c(C#N)cnn23)c1", "RECORDED_RESULT": "Not Active"}
{"COMPOUND": "Nc1cc(-c2ccncc2)c[nH]c1=O", "RECORDED_RESULT": "Not Active"}

Would you kindly share the measured IC50 for `CCCCC1=NC2(CCCC2)C(=O)N1Cc1ccc(-c2ccccc2-c2nnn[nH]2)cc1` ?
Not Active

And then CC(=O)OCC(=O)[C@@]1(O)CC[C@H]2[C@@H]3CCC4=CC(=O)CC[C@]4(C)[C@@]3(F)[C@@H](O)C[C@@]21C [FLUDROCORTISONE ACETATE] , what is it?
Not Active

----------
target: Alpha-1B adrenergic receptor (Rattus norvegicus, UniProt P15823); assay: DRUGMATRIX: Alpha-1B adrenergic receptor radioligand binding (ligand: prazosin); assay type: cell membranes, Wistar, Liver, Membrane; conditions: Not Active = under 50% inhibition at 10 µM
Sequence (P15823 whole entry): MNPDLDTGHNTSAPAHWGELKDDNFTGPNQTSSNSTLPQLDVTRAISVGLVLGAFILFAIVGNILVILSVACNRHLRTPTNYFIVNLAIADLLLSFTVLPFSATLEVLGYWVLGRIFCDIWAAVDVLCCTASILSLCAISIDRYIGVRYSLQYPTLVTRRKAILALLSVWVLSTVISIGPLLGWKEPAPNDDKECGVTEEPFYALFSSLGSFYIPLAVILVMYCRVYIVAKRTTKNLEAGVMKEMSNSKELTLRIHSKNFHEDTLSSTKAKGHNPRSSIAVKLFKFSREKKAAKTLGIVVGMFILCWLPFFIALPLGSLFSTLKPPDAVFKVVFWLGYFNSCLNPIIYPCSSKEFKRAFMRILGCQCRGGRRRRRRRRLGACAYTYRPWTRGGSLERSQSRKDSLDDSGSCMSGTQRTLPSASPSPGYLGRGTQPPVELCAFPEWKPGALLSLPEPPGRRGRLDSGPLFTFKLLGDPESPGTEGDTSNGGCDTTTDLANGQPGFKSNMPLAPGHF
READOUT: IC50

Use the examples below as a reference point.
{"COMPOUND": "C[C@@H]1C/C=C/C=C/C=C/C=C/[C@H](O[C@@H]2O[C@H](C)[C@@H](O)[C@H](N)[C@@H]2O)C[C@@H]2O[C@](O)(C[C@@H](O)C[C@H]3O[C@@H]3/C=C/C(=O)O1)C[C@H](O)[C@H]2C(=O)O", "IC50": "Not Active"}
{"COMPOUND": "CC(O)(P(=O)(O)O)P(=O)(O)O", "IC50": "Not Active"}
{"COMPOUND": "CC[C@]1(O)C[C@@H]2CN(CCc3c([nH]c4ccccc34)[C@@](C(=O)OC)(c3cc4c(cc3OC)N(C)[C@H]3[C@@](O)(C(N)=O)[C@H](O)[C@]5(CC)C=CCN6CC[C@]43[C@@H]65)C2)C1", "IC50": "Not Active"}
{"COMPOUND": "C[C@]12C=CC(=O)C=C1CC[C@H]1[C@@H]3C[C@@H](O)[C@](O)(C(=O)CO)[C@@]3(C)C[C@H](O)[C@@]12F", "IC50": "Not Active"}
{"COMPOUND": "O=C(O)CCNC(=O)c1ccc(/N=N/c2ccc(O)c(C(=O)O)c2)cc1 [BALSALAZIDE]", "IC50": "Not Active"}

Would you kindly share the measured IC50 for CCCNC(=O)NS(=O)(=O)c1ccc(Cl)cc1 [CHLORPROPAMIDE] ?
Not Active
